I'd be grateful if you could share measured inhibition at 20 min, 0.5 µM for these entries.
assayedSystem: P-gp (ABCB1) (Homo sapiens, UniProt P08183)
Sequence (P08183 whole entry): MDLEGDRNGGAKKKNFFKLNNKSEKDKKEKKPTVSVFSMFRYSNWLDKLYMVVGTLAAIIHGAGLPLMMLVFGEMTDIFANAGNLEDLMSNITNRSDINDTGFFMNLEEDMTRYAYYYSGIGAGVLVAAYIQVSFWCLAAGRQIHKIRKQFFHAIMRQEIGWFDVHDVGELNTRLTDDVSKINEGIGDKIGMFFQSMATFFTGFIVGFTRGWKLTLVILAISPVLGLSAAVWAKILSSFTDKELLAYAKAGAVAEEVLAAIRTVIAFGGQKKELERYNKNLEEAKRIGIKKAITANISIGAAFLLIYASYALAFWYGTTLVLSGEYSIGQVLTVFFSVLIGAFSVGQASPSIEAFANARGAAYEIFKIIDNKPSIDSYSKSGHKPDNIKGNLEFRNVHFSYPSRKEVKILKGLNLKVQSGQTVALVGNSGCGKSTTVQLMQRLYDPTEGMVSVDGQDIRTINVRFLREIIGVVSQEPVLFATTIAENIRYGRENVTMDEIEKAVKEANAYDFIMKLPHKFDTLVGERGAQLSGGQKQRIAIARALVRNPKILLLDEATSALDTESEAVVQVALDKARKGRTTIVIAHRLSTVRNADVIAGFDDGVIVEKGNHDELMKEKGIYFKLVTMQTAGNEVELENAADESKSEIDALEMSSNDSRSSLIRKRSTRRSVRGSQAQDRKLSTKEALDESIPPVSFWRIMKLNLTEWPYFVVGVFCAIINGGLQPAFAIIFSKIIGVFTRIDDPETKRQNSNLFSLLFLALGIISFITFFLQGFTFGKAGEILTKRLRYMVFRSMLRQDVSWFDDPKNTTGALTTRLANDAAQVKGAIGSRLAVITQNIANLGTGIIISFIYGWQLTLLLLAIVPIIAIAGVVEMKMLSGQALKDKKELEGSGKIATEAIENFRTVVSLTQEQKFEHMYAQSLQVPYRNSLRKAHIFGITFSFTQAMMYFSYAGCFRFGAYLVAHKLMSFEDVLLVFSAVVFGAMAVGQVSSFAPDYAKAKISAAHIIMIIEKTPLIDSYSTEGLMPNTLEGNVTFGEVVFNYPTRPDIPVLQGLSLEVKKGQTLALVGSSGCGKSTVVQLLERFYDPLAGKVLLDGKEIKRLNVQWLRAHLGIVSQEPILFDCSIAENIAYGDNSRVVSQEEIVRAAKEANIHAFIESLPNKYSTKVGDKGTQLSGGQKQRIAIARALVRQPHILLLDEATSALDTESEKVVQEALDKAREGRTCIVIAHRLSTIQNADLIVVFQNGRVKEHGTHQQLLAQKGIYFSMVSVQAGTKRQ
assayNotes: Inhibition of human P-gp expressed in high five insect cell membrane vesicles by measuring the vanadate-sensitive ATPase activity of P-gp at 0.5 uM preincubated for 5 mins in the presence of sodium orthovanadate measured after 20 mins by colorimetric method
State just the number; it will be interpreted in %.

Q) Answer briefly: inhibition at 20 min, 0.5 µM recorded on P-gp (ABCB1) (Homo sapiens, UniProt P08183) for CC(C)[C@H](NC(=O)c1cc(F)c(F)c(F)c1)c1nc(C(=O)NC2CCC(F)(F)CC2)cs1
A) 16.6

Q) Write down the reported inhibition at 20 min, 0.5 µM (system: P-gp (ABCB1) (Homo sapiens, UniProt P08183)) of COc1cc(C(=O)N[C@H](c2nc(C(=O)NC3CCC(F)(F)CC3)cs2)C(C)C)cc(OC)c1OC
A) 30.7

Q) Please respond with reported inhibition at 20 min, 0.5 µM (system P-gp (ABCB1) (Homo sapiens, UniProt P08183)) for COc1cc(C(=O)NC(Cc2ccccc2)c2nc(C(=O)NC3CCC(F)(F)CC3)cs2)cc(OC)c1OC (configuration not stated) .
A) 39.6

Q) Give measured inhibition at 20 min, 0.5 µM for COc1cc(C(=O)NC(Cc2ccc(O)cc2)c2nc(C(=O)NC3CCC(F)(F)CC3)cs2)cc(OC)c1OC (configuration not stated) (P-gp (ABCB1) (Homo sapiens, UniProt P08183)).
A) 22.4

Q) Fetch value of inhibition at 20 min, 0.5 µM on P-gp (ABCB1) (Homo sapiens, UniProt P08183) for COc1cc(C(=O)N[C@H](c2nc(C(=O)NC3CCCCC3)cs2)C(C)C)cc(OC)c1OC .
A) 18

Q) // fetch inhibition at 20 min, 0.5 µM; item: COc1cc(C(=O)N[C@H](c2nc(C(=O)NCC3CCC(F)(F)CC3)cs2)C(C)C)cc(OC)c1OC ; system: P-gp (ABCB1) (Homo sapiens, UniProt P08183)
A) 27

Q) Give the observed inhibition at 20 min, 0.5 µM of COc1cc(C(=O)N[C@H](c2nc(C(=S)NC3CCC(F)(F)CC3)cs2)C(C)C)cc(OC)c1OC for P-gp (ABCB1) (Homo sapiens, UniProt P08183).
A) 37.4
